Cited source for all entries: ChEMBL document CHEMBL1130602

Listed here are molecules together with their documented Ki.
biological target: D(4) dopamine receptor (Homo sapiens); experiment: Compound was evaluated for binding affinity against human Dopamine receptor D4 transfected in CHO cell membranes
Sequence (P21917 whole entry): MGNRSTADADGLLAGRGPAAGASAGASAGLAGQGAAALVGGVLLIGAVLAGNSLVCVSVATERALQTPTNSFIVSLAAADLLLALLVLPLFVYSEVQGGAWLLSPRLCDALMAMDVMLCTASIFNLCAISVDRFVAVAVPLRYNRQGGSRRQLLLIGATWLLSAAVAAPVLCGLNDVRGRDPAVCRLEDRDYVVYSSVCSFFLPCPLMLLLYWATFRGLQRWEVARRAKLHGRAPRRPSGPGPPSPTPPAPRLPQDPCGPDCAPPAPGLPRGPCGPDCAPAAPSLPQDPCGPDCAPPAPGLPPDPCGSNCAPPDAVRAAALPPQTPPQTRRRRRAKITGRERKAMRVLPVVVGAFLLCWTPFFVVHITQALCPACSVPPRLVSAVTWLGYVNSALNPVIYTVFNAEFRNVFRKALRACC
quantity: Ki

> print(dat)
                                 cpd.smiles  quantity  endpoint.result
1  O=C(NCCCCN1CCN(c2cccc(Cl)c2Cl)CC1)c1ccc2c(c1)Cc1ccccc1-2        Ki           > 5 µM
2  O=C(NCCCCN1CCN(c2cccc(Cl)c2Cl)CC1)c1ccc2c(c1)-c1ccccc1-2        Ki           > 5 µM
